- Tested on: Plasmodium falciparum
- assay protocol: Antiplasmodial activity against chloroquine-sensitive Plasmodium falciparum assessed as inhibition of [3H]hypoxanthine incorporation incubated for 20 to 24 hr prior to [3H]hypoxanthine addition measured after 24 grs by microbeta scintillation counting
- Assay type: functional, organism-based
Reported IC90 values for a set of molecules
assay metric: IC90

> print(dat)
                                    molecule  assay.metric   result
 1  CC(C)(C)OC(=O)N[C@@H](CSCc1ccccc1)C(=O)Nc1nccs1          IC90  12.6 µM
 2             CC(C)(C)OC(=O)NCC(=O)Nc1nccs1          IC90  21.3 µM
 3  CCN(CC)CCCC(C)Nc1ccnc2cc(Cl)ccc12 (stereo not drawn)          IC90  0.05 µM
 4  CC(C)[C@H](NC(=O)OC(C)(C)C)C(=O)Nc1nccs1          IC90  12.5 µM
 5  CC(C)(C)OC(=O)N[C@@H](Cc1c[nH]c2ccccc12)C(=O)Nc1nccs1          IC90  7.89 µM
 6   CSCC[C@H](NC(=O)OC(C)(C)C)C(=O)Nc1nccs1          IC90  29.1 µM
 7      C[C@H](NC(=O)OC(C)(C)C)C(=O)Nc1nccs1          IC90  24.5 µM
 8  CC1CCCN1[C@H](NC(=O)OC(C)(C)C)C(=O)Nc1nccs1 (stereo partly drawn)          IC90  11.1 µM
 9  CC(C)(C)OC(=O)N[C@@H](Cc1ccccc1)C(=O)Nc1nccs1          IC90  16.3 µM
10    N[C@H](Cc1c[nH]c2ccccc12)C(=O)Nc1nccs1          IC90  16.1 µM
11  CC(C)C[C@H](NC(=O)OC(C)(C)C)C(=O)Nc1nccs1          IC90  14.5 µM
12  CC[C@H](C)[C@H](NC(=O)OC(C)(C)C)C(=O)Nc1nccs1          IC90  9.74 µM
13            N[C@H](Cc1ccccc1)C(=O)Nc1nccs1          IC90  33.5 µM
